Entries annotated with measured EC90
test system: HIV-1NL4-3; experiment: Anti-HIV assay in MT-4 cells, consensus p24 assay; format: cell-based; conditions: Table 2, read-out: Anti-HIV-1 activity in different cells (EC90, μM) MT-4
Your answer should be a number followed by the unit of measure.

Reference set, count: 3
1) O=C(Nc1nc(=O)n([C@H]2C=C[C@@H](CO)O2)cc1F)c1cccc(F)c1 :: 3.1 µM
2) Nc1nc(=O)n([C@H]2C=C[C@@H](CO)O2)cc1F [D-D4FC, reference compound] :: 1.15 µM
3) CCc1ccc(C(=O)Nc2nc(=O)n([C@H]3C=C[C@@H](CO)O3)cc2F)cc1 :: 2.3 µM

Inquiry: Look up EC90: `CC(C)(C)c1ccc(C(=O)Nc2nc(=O)n([C@H]3C=C[C@@H](CO)O3)cc2F)cc1`
Reply text: 1.1 µM

* * *

IC50 for assorted compounds
experiment: Cytotoxicity assay in CEM cells; assay type: cell-based, human; settings: human, CEM lymphoblastoid cells, Table 1, read-out: Cytotoxicity in different cells (IC50, μM) CEM
Your answer should be a plain number; it is taken to be in µM.

Reference set, count: 2
1. CCc1ccc(C(=O)Nc2nc(=O)n([C@H]3CC[C@@H](CO)O3)cc2F)cc1 :: 89.8
2. O=C(Nc1nc(=O)n([C@H]2CC[C@@H](CO)O2)cc1F)c1cc2ccccc2s1 :: 4.5

Inquiry: What IC50 value was documented for this compound, `O=C(Nc1nc(=O)n([C@H]2CC[C@@H](CO)O2)cc1F)c1cccc(F)c1` ?
Reply text: 80.8

Inquiry: Recorded IC50 for `O=C(Nc1nc(=O)n([C@H]2CC[C@@H](CO)O2)cc1F)C1CCCCC1` , please?
Reply text: 6.4

Inquiry: If you can, please state the reported IC50 value of `O=C(Nc1nc(=O)n([C@H]2CC[C@@H](CO)O2)cc1F)c1ccc(F)cc1` .
Reply text: 45.7

Inquiry: Suppose we examine the compound `O=C(Nc1nc(=O)n([C@H]2CC[C@@H](CO)O2)cc1F)c1cccs1` ; what IC50 value has been reported?
Reply text: 13.7

* * *

test system: HepG2 cells; assay: Cytotoxicity assay in HepG2 cells; type: cell-based; conditions: Table 1, read-out: Cytotoxicity in different cells (IC50, μM) HepG2
Classify: T when IC50 is strictly less than 20 µM; F when IC50 is not.

Past entries and their recorded results:
1) O=C(Nc1nc(=O)n([C@H]2CC[C@@H](CO)O2)cc1F)c1ccccc1[N+](=O)[O-] :: F
2) O=C(Nc1nc(=O)n([C@H]2CC[C@@H](CO)O2)cc1F)c1ccco1 :: F
3) CCCCc1ccc(C(=O)Nc2nc(=O)n([C@H]3CC[C@@H](CO)O3)cc2F)cc1 :: T

Now for another entry.
Inquiry: Hi there! Is IC50 for `O=C(Nc1nc(=O)n([C@H]2CC[C@@H](CO)O2)cc1F)c1cccc([N+](=O)[O-])c1` below 20 µM, do you know?
Reply text: F

* * *

Parameter: IC50. Scope: all listed entries.
experiment: Cytotoxicity assay in CEM cells; format: cell-based, human; conditions: human, CEM lymphoblastoid cells, Table 2, read-out: Cytotoxicity in different cells (IC50, μM) CEM
Reply numerically in µM, unit not repeated.

The examples below pair each entry with its known result.
1. O=C(Nc1nc(=O)n([C@H]2C=C[C@@H](CO)O2)cc1F)C1CCCCC1 :: 11.2
2. O=C(Nc1nc(=O)n([C@H]2C=C[C@@H](CO)O2)cc1F)C1CCCC1 :: 19.6
3. O=C(Nc1nc(=O)n([C@H]2C=C[C@@H](CO)O2)cc1F)c1ccc(Cl)cc1 :: 16.8
4. O=C(Nc1nc(=O)n([C@H]2C=C[C@@H](CO)O2)cc1F)c1ccc(Br)cc1 :: 24
5. O=C(Nc1nc(=O)n([C@H]2C=C[C@@H](CO)O2)cc1F)c1cccc([N+](=O)[O-])c1 :: 54.5

Inquiry: # input compound: `Cc1cccc(C(=O)Nc2nc(=O)n([C@H]3C=C[C@@H](CO)O3)cc2F)c1` ; wanted: its IC50
Reply text: 34.9

Inquiry: Give its IC50 value. Item: `Cc1ccc(C(=O)Nc2nc(=O)n([C@H]3C=C[C@@H](CO)O3)cc2F)cc1`
Reply text: 31.9

Inquiry: # lookup: IC50 of `O=C(Nc1nc(=O)n([C@H]2C=C[C@@H](CO)O2)cc1F)c1ccc(F)cc1`
Reply text: 51.3

Inquiry: Field request: IC50 | item: `O=C(Nc1nc(=O)n([C@H]2C=C[C@@H](CO)O2)cc1F)c1ccc(I)cc1`
Reply text: 11.4
